- Tested on: P388
- assay.comment: Cytotoxicity of spisulosine analogs, P388 (after Berjeron et al)
- Format: cell-based
- test.settings: P388; methodology after Berjeron et al; NA=not active; read-out: Cytotoxicity IC50 P388
pIC50: −log10 of the molar value.
Label Satisfied when pIC50 is at or above 7; otherwise label Not satisfied.

Input line: # bool: pIC50 of CCCCCCCCCCCCCCCC(O)C(N)CC (stereo not drawn) [drawing 79] >= 7
Output line: Not satisfied

====

- Test system: CHSA
- assay.comment: Cytotoxicity MTS, solid tumors, Chondrosarcoma CHSA
- Type: cell-based
- test.settings: 4-Parameter Curve Fit, NA = not active
Please go through the items and note down their log10 of IC50.
Short version: log10 scale, IC50, µM.

The cases that follow already have their log10 of IC50 on record.
INSERT INTO results (molecule, target_desc, measurement_kind, meas_value) VALUES
  ('CCCCCCCCCCCCCCCC[C@@H](O)[C@H](C)N [drawing 113]', 'CHSA', 'log10 of IC50', -1.74),
  ('CCCCCCCCCCCCCC[C@@H](O)[C@H](C)N [drawing 115]', 'CHSA', 'log10 of IC50', 0.98),
  ('CCCCCCCCCCCCCCC[C@@H](O)[C@@H](N)CF [drawing 122]', 'CHSA', 'log10 of IC50', 0.66),
  ('CCCCCCCCCCCCCCCCC[C@@H](O)[C@H](C)N [drawing 114]', 'CHSA', 'log10 of IC50', 0.20);

In the following, a different molecule is considered.
Input line: Provide value of log10 of IC50 for this record tested with CHSA: CCCCCCCCCCCCCCC[C@@H](O)[C@@H](N)CC [drawing 116]
Output line: 0.95

====

Please go through the items and note down their pIC50.
- System: MEL28
- assay.comment: Cytotoxicity of spisulosine analogs, MEL28 (after Berjeron et al)
- Format: cell-based
- test.settings: Homo sapiens, SK-MEL-28, MEL28; methodology after Berjeron et al; NA=not active; read-out: Cytotoxicity IC50 MEL28
Numbers only, as −log10 of the molar value.

The cases that follow already have their pIC50 on record.
INSERT INTO results (compound, meas_value) VALUES
  ('CCCCCCCCCCCCCCC[C@H](O)[C@@H](C)N', 6.46),
  ('CCCCCCCCCCCCC[C@@H](O)[C@H](C)N [drawing 41, (2S,3R)-2-Amino-3-hexadecanol]', 6.43),
  ('CCCCCCCCCCCCCCCCCC[C@@H](O)[C@H](C)N [drawing 52, (2S,3R)-2-Amino-3-heneicosanol]', 6.52),
  ('CCCCCCCCCCCC[C@@H](O)[C@H](C)N', 5.69),
  ('CCCCCCCCCCCCCCCCC[C@@H](O)[C@H](C)N [drawing 38, (2S,3R)-2-Amino-3-eicosanol]', 6.50);

Each compound below has a reported value. Please supply its pIC50.
1. CCCCCCCCCCC[C@@H](O)[C@H](C)N
2. CCCCCCCCCCCCCC[C@@H](O)[C@H](C)N [drawing 44, (2S,3R)-2-Amino-3-heptadecanol]
3. CCCCCCCCCCCCCCC[C@H](O)[C@H](C)N

Output line:
1: 5.66; 2: 7.43; 3: 6.46
